Where do the numbers come from? From ChEMBL document CHEMBL1153635.

# MEASUREMENT_TARGET: Prostaglandin G/H synthase 2 (Homo sapiens, UniProt P35354)
# Sequence (P35354 whole entry): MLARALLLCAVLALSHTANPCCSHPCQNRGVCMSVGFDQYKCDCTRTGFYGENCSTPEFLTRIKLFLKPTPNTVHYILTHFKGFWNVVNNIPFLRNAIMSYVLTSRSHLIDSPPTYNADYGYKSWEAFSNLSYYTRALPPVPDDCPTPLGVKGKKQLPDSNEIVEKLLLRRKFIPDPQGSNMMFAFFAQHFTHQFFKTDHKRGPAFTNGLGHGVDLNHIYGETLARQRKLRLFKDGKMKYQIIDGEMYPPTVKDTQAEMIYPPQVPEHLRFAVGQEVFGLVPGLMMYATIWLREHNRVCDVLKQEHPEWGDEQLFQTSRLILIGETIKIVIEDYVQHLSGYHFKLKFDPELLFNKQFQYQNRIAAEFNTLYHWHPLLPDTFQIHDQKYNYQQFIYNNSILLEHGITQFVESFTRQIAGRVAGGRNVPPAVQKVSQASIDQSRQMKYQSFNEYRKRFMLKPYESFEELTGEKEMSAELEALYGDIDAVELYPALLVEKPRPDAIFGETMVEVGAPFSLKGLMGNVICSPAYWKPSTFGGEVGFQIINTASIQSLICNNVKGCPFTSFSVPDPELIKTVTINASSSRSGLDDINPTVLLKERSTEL
# Assay type: cell-based, COS
pIC50: −log10 of the molar value.
Assign Fulfilled whenever pIC50 does not fall below 8; assign Not fulfilled whenever it does.

INSERT INTO assay_data (record_smiles, qualitative_label) VALUES
  ('CS(=O)(=O)c1ccc(-c2cc(C(F)(F)F)nc(NCC3CCCCC3)n2)cc1', 'Not fulfilled'),
  ('Cc1cnc(NC2CCCCC2)nc1-c1ccc(S(C)(=O)=O)cc1', 'Not fulfilled'),
  ('Cc1cc(-c2ccc(S(C)(=O)=O)cc2)nc(NC2CCCCC2)n1', 'Not fulfilled'),
  ('Cc1ccc(CNc2nc(-c3ccc(S(C)(=O)=O)cc3)cc(C(F)(F)F)n2)cc1', 'Fulfilled');

Turning now to a further compound:
Determine whether measured pIC50 meets or exceeds 8 for CS(=O)(=O)c1ccc(-c2cc(C(F)(F)F)nc(Nc3ccccc3)n2)cc1
Fulfilled

---

# Vd per entry
# ASSAY_TEXT: Volume of distribution at steady state in rat at 1 mg/kg/hr, iv
# Assay type: ADME, organism-based
# Parameters: route intravenous
# STATED_CONDITIONS: in vivo, read-out: Vdss
// return numeric value only (unit: L/kg, not printed)

INSERT INTO measurements (record_smiles, measurement_units, meas_value) VALUES
  ('CCCCOc1nc(-c2ccc(S(C)(=O)=O)cc2)cc(C(F)(F)F)n1', 'L/kg', 5.7);

// below: Vd requested for another compound
Would you kindly share the measured Vd for CC(C)CNc1nc(-c2ccc(S(C)(=O)=O)cc2)cc(C(F)(F)F)n1 ?
6

---

# System: COS
# ASSAY_TEXT: Selectivity ratio of IC50 for human COX1 to IC50 for human COX2 expressed in african green monkey COS cells
# Assay type: cell-based
Active and inactive are the calls of the source. No cut-off for these calls is given here.
READOUT_KIND: Ratio IC50

Consider the worked cases shown below.
INSERT INTO results (record_smiles, meas_value) VALUES
  ('CCCCNc1nc(-c2ccc(S(C)(=O)=O)cc2)cc(C(F)(F)F)n1', '> 76900'),
  ('CS(=O)(=O)c1ccc(-c2cc(C(F)(F)F)nc(N)n2)cc1', '> 368'),
  ('CS(=O)(=O)c1ccc(-c2cc(C(F)(F)F)nc(NC3CCCCC3)n2)cc1', '> 117000'),
  ('CS(=O)(=O)c1ccc(-c2cc(C(F)(F)F)nc(Nc3ccc(F)cc3)n2)cc1', '> 9140'),
  ('CS(=O)(=O)c1ccc(-c2cc(C(=O)O)nc(NC3CCCCC3)n2)cc1', 'inactive'),
  ('Cc1ccc(N(C)c2nc(-c3ccc(S(C)(=O)=O)cc3)cc(C(F)(F)F)n2)cc1', '> 24700'),
  ('CS(=O)(=O)c1ccc(-c2cc(C(N)=O)nc(NC3CCCCC3)n2)cc1', 'inactive'),
  ('CCCNc1nc(-c2ccc(S(C)(=O)=O)cc2)cc(C(F)(F)F)n1', '> 2000'),
  ('CS(=O)(=O)c1ccc(-c2cc(C(F)(F)F)nc(NCC3CCCCC3)n2)cc1', '> 3450');

Continue with the molecule presented below.
Using the record for Cc1cnc(NC2CCCCC2)nc1-c1ccc(S(C)(=O)=O)cc1 , report its Ratio IC50.
inactive
